Could you please report measured pK aMnL(H2O) (acid dissociation constant of an associated aqua ligand) for the items listed next?
Details: I = 0.10 M KCl, t = 25 °C

Data request: Given OCCN(CCO)Cc1ccccn1 [PDEA] , state its recorded pK aMnL(H2O) (acid dissociation constant of an associated aqua ligand).
Data returned: 7.00(2)

Data request: Given OCCN(Cc1ccccn1)Cc1ccccn1 [DPEA, N,N-Bis(2-pyridylmethyl)ethanolamine] , state its recorded pK aMnL(H2O) (acid dissociation constant of an associated aqua ligand).
Data returned: 5.63(1)

Data request: Given c1ccc(CN(Cc2ccccn2)Cc2ccccn2)nc1 [TMPA, Tris(pyridin-2-ylmethyl)amine] , state its recorded pK aMnL(H2O) (acid dissociation constant of an associated aqua ligand).
Data returned: 4.98(3)

Data request: Given COCCN(CCOC)Cc1ccccn1 [PDMEA] , state its recorded pK aMnL(H2O) (acid dissociation constant of an associated aqua ligand).
Data returned: 6.6(1)

Data request: Given COCCN(Cc1ccccn1)Cc1ccccn1 [DPMEA] , state its recorded pK aMnL(H2O) (acid dissociation constant of an associated aqua ligand).
Data returned: 6.07(2)

Values were extracted from paper PMC12658643.
